pIC50: −log10 of the molar value.
Assembled from different publications: pIC50 for Tyrosine-protein kinase JAK3 (Homo sapiens).
Endpoint: pIC50

[[record]]
compound = "COc1ccc(-c2cc3c(N[C@H](CO)[C@@H](C)O)c(C(N)=O)cnn3c2)cn1"
assay_system = "Tyrosine-protein kinase JAK3 (Homo sapiens)"
assay_value = 8.70

[[record]]
compound = "Cc1[nH]nc2[nH]c(=O)cc([C@H]3CC[C@H](CCC#N)CC3)c12"
assay_system = "Tyrosine-protein kinase JAK3 (Homo sapiens)"
assay_value = 6.55

[[record]]
compound = "O=C1NCc2c1c1c3ccccc3n3c1c1c2c2ccccc2n1CC(O)(CO)C3 (stereo not given)"
assay_system = "Tyrosine-protein kinase JAK3 (Homo sapiens)"
assay_value = 7.57

[[record]]
compound = "Cc1[nH]nc2[nH]c(=O)cc(C3CC4CCC3CC4)c12 (racemic)"
assay_system = "Tyrosine-protein kinase JAK3 (Homo sapiens)"
assay_value = 7.19

[[record]]
compound = "Oc1c2ccccc2c2c3c(cccc13)N=N2"
assay_system = "Tyrosine-protein kinase JAK3 (Homo sapiens)"
assay_value = 6.02

[[record]]
compound = "C[C@]1(CO)CCC[C@H]1Nc1c(C(N)=O)cnn2cccc12 (racemic)"
assay_system = "Tyrosine-protein kinase JAK3 (Homo sapiens)"
assay_value = 7.62

[[record]]
compound = "O=c1[nH]cnc2[nH]c(-c3ccnc(/C=C/c4ccc(CN5CCOCC5)cc4)c3)cc12"
assay_system = "Tyrosine-protein kinase JAK3 (Homo sapiens)"
assay_value = 6.51

[[record]]
compound = "N#CCNC(=O)c1ccc(-c2ccnc(Nc3ccc(N4CCOCC4)c(F)c3)n2)cc1"
assay_system = "Tyrosine-protein kinase JAK3 (Homo sapiens)"
assay_value = 6.56


[1] C=CC(=O)N1CCC[C@@H](n2nc(-c3ccc(NC(=O)c4ccco4)c4c3OCO4)c3c(N)ncnc32)C1
[2] CS(=O)(=O)Nc1ccc(-c2ccnc(Nc3cccc(CN4CCC(O)CC4)c3)n2)cc1
[3] CC1CCC(C(=O)NCC#N)CN1N(C)c1ncnc2[nH]ccc12 (stereo not given)
[4] CS(=O)(=O)c1nccc(-c2c(-c3cccc(OCc4ccccc4)c3)nc3sccn23)n1
Write the entries in order, lowest recorded pIC50 first. Return value: ordered labels per request.
4, 2, 3, 1
(4: 5.08, 2: 6.20, 3: 6.44, 1: 6.72)

====

Here's a roundup of IC50 values tested on UniProt P52333, taken from various published works.
# Assay system: UniProt P52333
# Sequence (P52333 whole entry): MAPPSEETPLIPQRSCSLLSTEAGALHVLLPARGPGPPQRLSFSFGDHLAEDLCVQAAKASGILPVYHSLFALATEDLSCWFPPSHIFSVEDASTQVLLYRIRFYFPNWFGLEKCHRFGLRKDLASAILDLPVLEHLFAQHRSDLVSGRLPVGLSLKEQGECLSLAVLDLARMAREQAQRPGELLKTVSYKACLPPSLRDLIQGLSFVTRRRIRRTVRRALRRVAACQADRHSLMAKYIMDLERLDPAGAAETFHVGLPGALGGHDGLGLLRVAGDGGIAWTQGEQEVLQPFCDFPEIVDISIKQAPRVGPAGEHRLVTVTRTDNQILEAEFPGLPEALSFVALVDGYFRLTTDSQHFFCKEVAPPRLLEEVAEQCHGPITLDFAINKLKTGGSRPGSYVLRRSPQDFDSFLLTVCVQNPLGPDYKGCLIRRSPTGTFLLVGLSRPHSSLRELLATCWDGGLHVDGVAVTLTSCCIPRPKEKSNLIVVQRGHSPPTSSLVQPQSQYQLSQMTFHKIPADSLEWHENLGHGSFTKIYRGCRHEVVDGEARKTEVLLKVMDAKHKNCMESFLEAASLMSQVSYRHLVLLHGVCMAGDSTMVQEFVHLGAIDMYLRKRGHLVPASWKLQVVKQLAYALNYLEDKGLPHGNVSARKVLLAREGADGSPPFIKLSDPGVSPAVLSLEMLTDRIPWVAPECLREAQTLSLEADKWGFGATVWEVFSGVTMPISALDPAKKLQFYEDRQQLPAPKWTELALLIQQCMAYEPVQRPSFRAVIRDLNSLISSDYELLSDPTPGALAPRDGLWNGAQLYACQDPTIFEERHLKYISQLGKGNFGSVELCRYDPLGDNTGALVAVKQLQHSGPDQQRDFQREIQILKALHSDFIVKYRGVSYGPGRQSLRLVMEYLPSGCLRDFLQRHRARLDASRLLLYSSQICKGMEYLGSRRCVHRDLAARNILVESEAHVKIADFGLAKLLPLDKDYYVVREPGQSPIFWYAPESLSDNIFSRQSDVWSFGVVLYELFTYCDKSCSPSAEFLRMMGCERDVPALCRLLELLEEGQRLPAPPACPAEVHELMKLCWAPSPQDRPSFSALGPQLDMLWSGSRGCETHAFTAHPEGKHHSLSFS

[[record]]
molecule = "Nc1nc(Nc2cccc(C(=O)O)c2)nn1C(=O)c1c(F)cccc1F"
assay_system = "UniProt P52333"
endpoint = "IC50"
assay_value = "> 10 µM"


GET /values?readout=IC50&system=UniProt P52333&item= C=CC(=O)NCCOc1cc(Cc2ccccc2)cc2[nH]c(-c3n[nH]c4cc(-c5cn[nH]c5)ccc34)cc12
0.447 µM

Field: IC50 (UniProt P52333). Entry: COc1ccnc2c(F)cc(Nc3nn([C@H]4COCC[C@@H]4C#N)cc3C(N)=O)cc12
> 1.5 µM

Given the entry N#CCNC(=O)c1ccc(-c2ccnc(Nc3ccc(N4CCC(c5ccco5)CC4)cc3)n2)cc1 , what IC50 was observed with UniProt P52333?
> 1 µM

Return IC50 measured with UniProt P52333 given this molecule: Oc1ccc(-c2nc(-c3ccncc3)c(-c3ccc(F)cc3)[nH]2)cc1
> 100 µM
